Tested on: LOC_OS05G30820-cb001
protocol_description: thermal shift delta Tm vs DMSO control; higher = stronger stabilization (binding);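 further: purified Escherichia coli-expressed rice kinase domain construct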
condition_label: 12.5 µM; protein concentration 2 µM
measure: thermal shift delta Tm (°C)
Quick note: give the figure in °C, leave out the unit.

>  <compound>
CCn1c(=O)c(-c2ccc(Cl)cc2Cl)cc2cnc(Nc3ccc(N4CCNCC4)c(F)c3)nc21

>  <thermal shift delta Tm / °C>
0.68

$$$$
>  <compound>
O=C(NOCC(O)CO)c1cc(Br)c(F)c(F)c1Nc1ccc(I)cc1F (stereo not given)

>  <thermal shift delta Tm / °C>
0.68

$$$$
>  <compound>
COc1cccc2cc(-c3nc([C@H]4CC[C@H](C(=O)O)CC4)n4ncnc(N)c34)[nH]c12

>  <thermal shift delta Tm / °C>
0.73

$$$$

Let's switch to this compound now.
Give thermal shift delta Tm for `CCn1cc(-c2ccnc3[nH]c(-c4cccc(CN(C)C)c4)cc23)c(-c2ccc(NC(=O)N(C)C)cc2)n1` 0.52

----------
Tested on: LOC_OS07G07230-cb001
protocol_description: thermal shift delta Tm vs DMSO control; higher = stronger stabilization (binding)
condition_label: 12.5 µM; protein concentration 2 µM
compounds and their reported thermal shift delta Tm
Quick note: give the figure in °C, leave out the unit.

# example entries with known answers
>  <compound>
O=C(Nc1c[nH]nc1-c1nc2ccc(CN3CCOCC3)cc2[nH]1)NC1CC1

>  <subject_of_test>
LOC_OS07G07230-cb001

>  <val>
0.15

$$$$
>  <compound>
Nc1cccc(-c2cc3c(Oc4cccc(O)c4)ncnc3[nH]2)c1

>  <subject_of_test>
LOC_OS07G07230-cb001

>  <val>
-0.21

$$$$
>  <compound>
COc1ccccc1-c1cc(Nc2cccc(CS(N)(=O)=O)c2)ncn1

>  <subject_of_test>
LOC_OS07G07230-cb001

>  <val>
-0.22

$$$$
>  <compound>
CNS(=O)(=O)Nc1nccc(Cc2c(C)c3ccc(Oc4ncccn4)cc3oc2=O)c1F

>  <subject_of_test>
LOC_OS07G07230-cb001

>  <val>
0.51

$$$$

Give thermal shift delta Tm for `CCNc1nc(Nc2cc(F)c(C(=O)N3CCOCC3)cc2OC)ncc1C(F)(F)F` -0.16

Give thermal shift delta Tm for Cc1cc(Nc2cc(N3CCN(C)CC3)nc(/C=C/c3ccccc3)n2)n[nH]1 [ENMD-2076 L-(+)-Tartaric acid] 0.39

Give thermal shift delta Tm for `Cc1ccc(C(=O)Nc2ccc(Oc3cc4cnn(C)c4cc3-c3cn[nH]c3)c(F)c2)c(=O)n1-c1ccc(F)cc1` -0.23

----------
Test system: LOC_OS01G48390-cb002
protocol_description: thermal shift delta Tm vs DMSO control; higher = stronger stabilization (binding)
condition_label: 12.5 µM; protein concentration 2 µM
measure: thermal shift delta Tm (°C)
Quick note: give the figure in °C, leave out the unit.

>  <compound>
Cc1ccc2nc(NCCN)c3ncc(C)n3c2c1

>  <value_unit>
°C

>  <val>
1.79

$$$$

Give thermal shift delta Tm for `O=C(NOCC1CC1)c1ccc(F)c(F)c1Nc1ccc(I)cc1Cl` 1.28

Give thermal shift delta Tm for `CNC(=O)Nc1ccc(-c2nc(N3CC4CCC(C3)O4)c3cnn(C4CCC5(CC4)OCCO5)c3n2)cc1` 0.79

----------
compounds and their reported thermal shift delta Tm
Tested on: LOC_OS04G57630-cb004
protocol_description: thermal shift delta Tm vs DMSO control; higher = stronger stabilization (binding)
condition_label: 12.5 µM; protein concentration 2 µM
Quick note: give the figure in °C, leave out the unit.

>  <compound>
CCOc1ccn(-c2ccc(F)cc2)c(=O)c1C(=O)Nc1ccc(Oc2ccnc(N)c2Cl)c(F)c1

>  <thermal shift delta Tm [°C]>
0.68

$$$$
>  <compound>
CCCS(=O)(=O)Nc1ccc(F)c(C(=O)c2c[nH]c3ncc(Cl)cc23)c1F

>  <thermal shift delta Tm [°C]>
0.51

$$$$

Give thermal shift delta Tm for `Cc1cc(Nc2cc(N3CCN(C)CC3)nc(/C=C/c3ccccc3)n2)n[nH]1` 3.73

Give thermal shift delta Tm for `Cn1sc(=O)n(Cc2ccccc2)c1=O` -1.01

Give thermal shift delta Tm for `CCN(CC)CCNC(=O)c1c(C)[nH]c(/C=C2\C(=O)Nc3ccc(F)cc32)c1C` 4.01

Give thermal shift delta Tm for `N#Cc1ccc(-c2c(-c3ncn[nH]3)sc(N3CCOCC3)c2C#N)c(F)c1` 0.27

Give thermal shift delta Tm for `CCOc1cc(C(=O)N2CCC(N3CCN(C)CC3)CC2)ccc1Nc1ncc2c(n1)N(C1CCCC1)c1ccccc1C(=O)N2C` -0.22

Give thermal shift delta Tm for `COC(=O)c1ccc2c(c1)NC(=O)/C2=C(\Nc1ccc(N(C)C(=O)CN2CCN(C)CC2)cc1)c1ccccc1` 1.08

Give thermal shift delta Tm for C1=N/C2=N/c3ccc(OCCN4CCCC4)c(c3)COC/C=C/COCc3cccc(c3)C(=C1)N2 [Pacritinib (SB1518)] 4.36

----------
Test system: LOC_OS06G22820-cb001
Sequence (whole entry): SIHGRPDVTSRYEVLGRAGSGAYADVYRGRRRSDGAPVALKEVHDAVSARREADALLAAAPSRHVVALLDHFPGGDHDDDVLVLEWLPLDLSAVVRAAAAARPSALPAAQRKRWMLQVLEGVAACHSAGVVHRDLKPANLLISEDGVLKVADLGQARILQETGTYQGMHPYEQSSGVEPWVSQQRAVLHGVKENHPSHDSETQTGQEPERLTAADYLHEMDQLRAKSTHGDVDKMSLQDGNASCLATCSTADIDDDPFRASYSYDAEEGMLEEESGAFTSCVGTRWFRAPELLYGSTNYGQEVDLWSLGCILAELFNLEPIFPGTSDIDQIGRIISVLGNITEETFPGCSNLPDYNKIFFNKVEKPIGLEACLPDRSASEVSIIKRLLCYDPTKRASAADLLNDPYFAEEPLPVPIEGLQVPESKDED
protocol_description: thermal shift delta Tm vs DMSO control; higher = stronger stabilization (binding)
condition_label: 12.5 µM; protein concentration 2 µM
measure: thermal shift delta Tm (°C)
Quick note: give the figure in °C, leave out the unit.

>  <molecule>
N#Cc1c(NC(=O)c2cccc3ccccc23)sc2c1CCCC2 [JNK Inhibitor IX]

>  <subject_of_test>
LOC_OS06G22820-cb001

>  <val>
0.6

$$$$

Give thermal shift delta Tm for `COc1cc2ncnc(Oc3cccc(NC(=O)Nc4cc(C(C)(C)C(F)(F)F)on4)c3)c2cc1OC` 0.58

Give thermal shift delta Tm for Cc1nc(NC(=O)N2CCC[C@H]2C(N)=O)sc1-c1ccnc(C(C)(C)C(F)(F)F)c1 [Alpelisib (BYL719)] 0.57

Give thermal shift delta Tm for `CNc1nc(-c2ccc3c(N)n[nH]c3c2)cc(N2C[C@@H](C(=O)NC3CCCCC3)CC[C@H]2C)n1` 0.79

----------
molecules and their reported thermal shift delta Tm
System: LOC_OS06G16330-cb003
Sequence (as listed by the source): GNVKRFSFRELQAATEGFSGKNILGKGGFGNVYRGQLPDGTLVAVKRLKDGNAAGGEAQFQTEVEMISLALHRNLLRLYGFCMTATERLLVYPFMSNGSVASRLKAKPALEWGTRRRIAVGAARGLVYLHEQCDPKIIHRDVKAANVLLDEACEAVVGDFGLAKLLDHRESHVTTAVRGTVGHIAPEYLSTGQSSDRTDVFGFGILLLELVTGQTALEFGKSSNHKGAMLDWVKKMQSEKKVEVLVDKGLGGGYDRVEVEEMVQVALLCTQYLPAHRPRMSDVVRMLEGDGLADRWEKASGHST
protocol_description: thermal shift delta Tm vs DMSO control; higher = stronger stabilization (binding)
condition_label: 12.5 µM; protein concentration 2 µM
Numeric answer plus unit only.

Give thermal shift delta Tm for `O=C(O)c1ccc(-c2c[nH]c3ncc(-c4ccccc4)cc23)cc1C1CCCC1` 10.4 °C

Give thermal shift delta Tm for `CO[C@@H](C(=O)N1Cc2[nH]nc(NC(=O)c3ccc(N4CCN(C)CC4)cc3)c2C1)c1ccccc1` 7.87 °C

Give thermal shift delta Tm for `Nc1ccc(-c2ccc3ncc4ccc(=O)n(-c5cccc(C(F)(F)F)c5)c4c3c2)cn1` 2.11 °C

----------
Test system: LOC_OS01G67340-cb003
protocol_description: thermal shift delta Tm vs DMSO control; higher = stronger stabilization (binding)
condition_label: 12.5 µM; protein concentration 2 µM
measure: thermal shift delta Tm (°C)
Quick note: give the figure in °C, leave out the unit.

>  <compound>
CNC(=O)c1ccccc1Nc1nc(Nc2ccc(N3CCOCC3)cc2OC)ncc1Cl

>  <value_unit>
°C

>  <thermal shift delta Tm>
0.32

$$$$
>  <compound>
O=S(=O)(c1cccc2c(I)cccc12)N1CCCNCC1

>  <value_unit>
°C

>  <thermal shift delta Tm>
0

$$$$
>  <compound>
CC1(C)OC(=O)C=C[C@]2(C)[C@H]3CC[C@@]4(C)[C@H](c5ccoc5)OC(=O)[C@H]5O[C@]54[C@]3(C)C(=O)C[C@@H]12

>  <value_unit>
°C

>  <thermal shift delta Tm>
0.19

$$$$
>  <compound>
CC(C)=CC[C@@H](O)C1=CC(=O)c2c(O)ccc(O)c2C1=O

>  <value_unit>
°C

>  <thermal shift delta Tm>
-2.36

$$$$
>  <compound>
CC(C)n1nc(-c2ccc3oc(N)nc3c2)c2c(N)ncnc21

>  <value_unit>
°C

>  <thermal shift delta Tm>
0.39

$$$$
>  <compound>
COc1cc2ncnc(Oc3cccc(NC(=O)Nc4cc(C(C)(C)C(F)(F)F)on4)c3)c2cc1OC

>  <value_unit>
°C

>  <thermal shift delta Tm>
0.78

$$$$

Give thermal shift delta Tm for `CN(C)C/C=C/C(=O)Nc1cc2c(Nc3ccc(F)c(Cl)c3)ncnc2cc1O[C@H]1CCOC1` -0.42

Give thermal shift delta Tm for `O=C(c1ccc(Nc2nccc(-c3cc4ccccc4s3)n2)cc1)N1CCC(N2CCCC2)CC1` 3.52

Give thermal shift delta Tm for CCCCNc1ncc(-c2ccc(CN3CCOCC3)cn2)c(NC2CCC(O)CC2)n1 (configuration not stated) 1.86

Give thermal shift delta Tm for `N#C/C(=C(/N)Sc1ccc(N)cc1)c1ccccc1C(F)(F)F` -0.57

Give thermal shift delta Tm for CC1(C)CNc2cc(NC(=O)c3cccnc3NCc3ccncc3)ccc21 [Motesanib Diphosphate (AMG-706)] -0.45

Give thermal shift delta Tm for `Nc1nc(N)c(N=O)c(OCC2CCCCC2)n1` 0.46
